Molecular target: T1, [2Fe-2S]-IscR wild-type (Escherichia coli, UniProt P0AGK8 1-162)
T1 sequence: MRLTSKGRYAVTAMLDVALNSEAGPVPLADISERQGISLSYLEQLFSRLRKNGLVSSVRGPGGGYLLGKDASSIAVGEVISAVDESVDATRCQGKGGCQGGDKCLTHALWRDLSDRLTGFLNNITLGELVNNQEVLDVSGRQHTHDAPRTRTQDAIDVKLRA
Assay: fluorescence anisotropy
ASSAY_ENDPOINT: Kd
Quote the value and follow it with the unit of measurement.

# get_value(readout='Kd', item= iscRB 30-mer (type 1) (dsDNA) DNA 1: AAATAGTTGACCATTTTACTCGGGAATGTC DNA 2: GACATTCCCGAGTAAAATGGTCAACTATTT ) 24 nM
